Provenance of the data: ChEMBL document CHEMBL6134821

Experiment: AUC (0 to t) in mouse at 2 mg/kg, iv measured for 0.083 to 24 hrs by LC-MS/MS analysis
Assay type: ADME, organism-based
Conditions: in vivo, time 0.083-24 hrs
Measurement type: AUC(0-t)
# number then unit; no other words

Asked: For O=C1CCC(c2ccc(N3CCC(CCN4CCC(CC(=O)N[C@H]5CC[C@H](Nc6ncnc7[nH]cc(C(=O)c8ccc(Oc9ccccc9)cc8)c67)C5)CC4)CC3)nc2)C(=O)N1 (stereo partly specified) , what is its reported AUC(0-t)?
Given back: 1730 ng·h/mL

====

Target: Protein cereblon/Tyrosine-protein kinase BTK (Homo sapiens, UniProt Q06187+Q96SW2)
Sequence (Q06187 2-659 limits assumed): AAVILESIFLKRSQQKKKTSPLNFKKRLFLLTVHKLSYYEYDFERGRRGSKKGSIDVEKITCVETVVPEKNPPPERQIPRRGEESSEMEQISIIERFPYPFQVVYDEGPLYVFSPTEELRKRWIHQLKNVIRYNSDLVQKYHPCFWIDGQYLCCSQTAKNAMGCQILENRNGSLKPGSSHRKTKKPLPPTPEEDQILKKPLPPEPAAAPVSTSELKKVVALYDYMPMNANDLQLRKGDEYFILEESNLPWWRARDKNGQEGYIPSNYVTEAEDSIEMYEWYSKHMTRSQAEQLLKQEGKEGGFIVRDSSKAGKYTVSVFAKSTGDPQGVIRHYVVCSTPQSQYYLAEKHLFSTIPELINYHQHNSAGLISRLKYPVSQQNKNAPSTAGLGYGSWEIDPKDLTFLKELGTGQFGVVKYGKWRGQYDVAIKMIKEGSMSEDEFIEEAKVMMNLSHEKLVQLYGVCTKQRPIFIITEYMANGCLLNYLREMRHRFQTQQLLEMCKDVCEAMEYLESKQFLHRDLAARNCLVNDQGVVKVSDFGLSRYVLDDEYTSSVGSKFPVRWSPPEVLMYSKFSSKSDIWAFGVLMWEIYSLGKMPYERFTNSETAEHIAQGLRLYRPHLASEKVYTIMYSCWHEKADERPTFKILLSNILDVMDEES
Sequence (Q96SW2 whole entry partner): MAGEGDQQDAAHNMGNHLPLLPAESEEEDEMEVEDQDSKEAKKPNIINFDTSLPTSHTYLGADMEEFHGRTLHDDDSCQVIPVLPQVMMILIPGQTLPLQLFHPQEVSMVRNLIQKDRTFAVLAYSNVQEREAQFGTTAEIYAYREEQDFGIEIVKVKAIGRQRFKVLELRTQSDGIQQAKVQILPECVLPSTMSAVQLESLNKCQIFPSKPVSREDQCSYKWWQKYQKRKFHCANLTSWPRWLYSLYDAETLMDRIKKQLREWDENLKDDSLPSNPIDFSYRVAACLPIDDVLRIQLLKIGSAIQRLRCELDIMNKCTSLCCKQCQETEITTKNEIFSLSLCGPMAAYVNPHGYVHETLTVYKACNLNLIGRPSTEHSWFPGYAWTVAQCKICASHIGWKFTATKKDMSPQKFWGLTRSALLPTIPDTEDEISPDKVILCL
Test: PROTAC activity at CRBN/BTK in human JeKo-1 cells assessed as BTK degradation at 30 nM incubated for 24 hrs by Western blot analysis relative to control
Format: cell-based
The following compounds are shown together with reported Activity values.
The answer is to be given in %; state only the numeric part.

Examples with their reported Activity follow.
Asked: What does the record list as Activity for O=C1CCC(c2ccc(N3CCC(CN4CCC(CC(=O)N[C@H]5CC[C@@H](Nc6ncnc7[nH]cc(C(=O)c8ccc(Oc9ccccc9)cc8)c67)CC5)CC4)CC3)cc2)C(=O)N1 (stereo partly specified) ?
Given back: 51

Asked: Try this compound next: O=C1CCC(N2Cc3cc(N4CCC(CCN5CCC(CC(=O)N6CCC(Nc7ncnc8[nH]cc(C(=O)c9ccc(Oc%10ccccc%10)cc9Cl)c78)CC6)CC5)CC4)c(F)cc3C2=O)C(=O)N1 (stereo unspecified)
Given back: 90

Asked: Also check O=C1CCC(c2ccc(N3CCC(CCN4CCN(CC(=O)N[C@H]5CC[C@@H](Nc6ncnc7[nH]cc(C(=O)c8ccc(Oc9ccccc9)cc8)c67)CC5)CC4)CC3)cc2)C(=O)N1 (stereo partly specified)
Given back: 36

Asked: Next entry: `O=C1CCN(c2ccc(C(=O)N3CCC(CCN4CCC(CC(=O)N[C@H]5CC[C@@H](Nc6ncnc7[nH]cc(C(=O)c8ccc(Oc9ccccc9)cc8Cl)c67)CC5)CC4)CC3)cc2)C(=O)N1`
Given back: 9

Asked: Same lookup for O=C1CCC(N2Cc3cc(N4CCC(CCN5CCC(CC(=O)N[C@H]6CC[C@H](Nc7ncnc8[nH]cc(C(=O)c9ccc(Oc%10ccccc%10)cc9Cl)c78)CC6)CC5)CC4)c(F)cc3C2=O)C(=O)N1 (stereo partly specified) , please.
Given back: 98

Now let's try a different one.
Asked: Sample O=C1CCC(c2ccc(N3CCC(CCN4CCC(CC(=O)N[C@H]5CC[C@@H](Nc6ncnc7[nH]cc(C(=O)c8ccc(Oc9ccccc9)cc8)c67)CC5)CC4)CC3)cc2)C(=O)N1 (stereo partly specified) — what was its Activity?
Given back: 79
